Origin of values: PubChem BioAssay (NCI)

# TGI values compiled below
- System: HOP-62 NSCLC
- ASSAY NOTES: NCI tumour cell line growth inhibition, 48 h
Express it in µM; write the number only.

1. CNCCCNc1nc2ccccc2c2c(=O)c3cc(OC)ccc3sc12 = 3.76

Now for a further compound.
Give a short answer stating reported TGI for CN=C1C=CC(=C(c2ccc(N(C)C)cc2)c2ccc(N(C)C)cc2)C=C1 .
1.48

----------
- System: COLO 205 colon
- ASSAY NOTES: NCI tumour cell line growth inhibition, 48 h
PROPERTY: GI50

1) O=C1CSC(c2ccccc2Cl)N1c1nnc(Cn2cnnc2)o1 (stereo not drawn) = 10.5 µM
2) Cc1ccc(N=C[N-]c2ccc(C)cc2)cc1.Cc1ccc(N=C[N-]c2ccc(C)cc2)cc1.O=C([O-])C(F)(F)F.O=C([O-])C(F)(F)F.[OH3+].[OH3+].[Rh+2].[Rh+2] = 36.3 µM

Now for a further compound.
Give a short answer stating reported GI50 for CCCCCCCCCCCCC(O)c1ccco1 (stereo not drawn) .
36.6 µM

----------
- System: HCC-2998 colon
- ASSAY NOTES: NCI tumour cell line growth inhibition, 48 h
PROPERTY: TGI

1. NC(N)=NC1C(O)C(O)C(O)C(N=C(N)N)C1O (stereo unspecified) = > 100 µM
2. Oc1ccc(Oc2cc3c(cc2Oc2ccc(O)cc2)-c2nc-3nc3[nH]c(nc4nc(nc5[nH]c(n2)c2cc(Oc6ccc(O)cc6)c(Oc6ccc(O)cc6)cc52)-c2cc(Oc5ccc(O)cc5)c(Oc5ccc(O)cc5)cc2-4)c2cc(Oc4ccc(O)cc4)c(Oc4ccc(O)cc4)cc32)cc1 = > 100 µM
3. Clc1cc(Cl)ncn1 = > 100 µM

Now for a further compound.
Give a short answer stating reported TGI for N#CC1=C(N)Oc2c(ccc3ccccc23)C1c1cc(=O)oc2ccc(Cl)cc12 (stereo unspecified) .
19.5 µM

----------
- Test system: DU-145 prostate
- ASSAY NOTES: NCI tumour cell line growth inhibition, 48 h; in the data active means GI50 below about 0.43 µM; inactive means the rest
A correct response names exactly one class from active, inactive

Example results:
1) COc1ccc(C(=O)c2cc(C)c(OC)c(C)c2)c(OC)c1NC(C)=O = active
2) CC(=O)OC12C=C(C)C(C(C)C1)C1C(=O)N(CCN3CCCCC3)C(=O)C12 (centres undefined) = inactive
3) COc1cccc2cc(N(C)c3nc(C)nc4c3CCC4)ccc12 = active
4) CCN(CC)CCCC(C)Nc1cc(-c2cccc(OC(F)(F)F)c2)nc2ccc(N3CCCC3)cc12 (centres undefined) = active
5) Cc1c(C#N)cccc1[C@@H](C)Nc1nnc(C)c2cnc(N3CCOCC3)cc12 = inactive
6) N#CC1=C(N)Oc2c(ccc3ccccc23)C1c1cc(=O)oc2ccc(Cl)cc12 (centres undefined) = inactive

Name the outcome recorded for ClCc1ccccc1Cn1cnc2ncnc(Cl)c21 in the assay.
inactive

Name the outcome recorded for O=C1CSC(c2ccccc2Cl)N1c1nnc(Cn2cnnc2)o1 (centres undefined) in the assay.
inactive

Name the outcome recorded for O=C(NNc1ccc(Cl)cc1)C1CCC(CNS(=O)(=O)c2ccccc2Cl)CC1 (centres undefined) in the assay.
inactive

----------
- System: HOP-62 NSCLC
- ASSAY NOTES: NCI tumour cell line growth inhibition, 48 h
PROPERTY: TGI

1. COCCOc1cc(C)cc(/C=C(C)/C=C/C2=C(C)CCCC2(C)C)n1 = > 100 µM
2. CCN(CC)C(=O)Cn1c2c(c3ccccc31)CCCC2 = > 100 µM
3. Cc1c(C(=O)O)n(C)c(=O)n(C)c1=O = > 100 µM

Give a short answer stating reported TGI for COc1ccccc1C1C(C#N)=C(N)Oc2n[nH]c(C)c21 (stereo unspecified) .
> 100 µM

Give a short answer stating reported TGI for O=C(O)/C(Cc1cn[nH]n1)=N\O .
> 100 µM

Give a short answer stating reported TGI for O=c1c2nc(-c3ccccc3)oc2n(-c2ccccc2)c(=O)n1-c1ccccc1 .
29.7 µM

----------
- System: PC-3 prostate
- ASSAY NOTES: NCI tumour cell line growth inhibition, 48 h
PROPERTY: TGI

1) CN1Cc2ccccc2/C=C\c2ccccc21 = > 100 µM
2) O=c1c2nc(-c3ccccc3)oc2n(-c2ccccc2)c(=O)n1-c1ccccc1 = > 46.4 µM

Give a short answer stating reported TGI for NCCSCCC(=O)O .
> 100 µM

Give a short answer stating reported TGI for Cc1ccc([N+](=O)[O-])c2c(NCCNC(=O)c3cc(C(=O)NCCNc4ccnc5c(C)ccc([N+](=O)[O-])c45)n(C)n3)ccnc12 .
> 100 µM

Give a short answer stating reported TGI for CC1(C)C=C(/C=N/Nc2ccccc2)C(C#N)=C(O)C1(C#N)C#N .
> 100 µM

Give a short answer stating reported TGI for O=c1[nH]nc(Cc2ccc(Cl)cc2)n1/N=C/c1ccc([N+](=O)[O-])o1 .
> 75.1 µM

Give a short answer stating reported TGI for c1ccc(OCCC[P+](c2ccccc2)(c2ccccc2)c2ccccc2)cc1 .
6.17 µM

Give a short answer stating reported TGI for Cc1ccccc1NC(=O)CC(=O)NNC(Sc1ccccc1)c1cc(N=Nc2ccc(Br)cc2)ccc1O (stereo unspecified) .
> 10 µM

Give a short answer stating reported TGI for CSc1nc2nc3c(nc2c(=O)n1C)C(=O)c1ccccc1C3=O .
1.46 µM

Give a short answer stating reported TGI for CNCCCNc1nc2ccccc2c2c(=O)c3cc(OC)ccc3sc12 .
3.45 µM

Give a short answer stating reported TGI for CCCCCCCCCCCCC(O)c1ccco1 (stereo unspecified) .
30.7 µM

----------
# GI50 values compiled below
- Tested on: IGROV1 ovarian
- ASSAY NOTES: NCI tumour cell line growth inhibition, 48 h

1) CCC[CH2][Sn]([CH2]CCC)([S]C#N)[S]C#N = 1270 nM
2) O=C(NCCCc1cn[nH]c1)c1ccc(-c2ccncc2)c(C#Cc2ccc(F)cc2)c1 = 28.2 nM
3) COc1cccc2cc(N(C)c3nc(C)nc4c3CCC4)ccc12 = < 10 nM

Now for a further compound.
Give a short answer stating reported GI50 for Cc1ccc(N=C[N-]c2ccc(C)cc2)cc1.Cc1ccc(N=C[N-]c2ccc(C)cc2)cc1.O=C([O-])C(F)(F)F.O=C([O-])C(F)(F)F.[OH3+].[OH3+].[Rh+2].[Rh+2] .
26600 nM

----------
- Test system: KM12 colon
- ASSAY NOTES: NCI tumour cell line growth inhibition, 48 h
PROPERTY: TGI (µM)
Express it in µM; write the number only.

1) COc1cccc(C2c3cc4c(cc3OC(Nc3ccccc3)C2C)OCO4)c1O (stereo unspecified) = 24.8
2) Cc1c([C@H](C)[C@@H]2NC[C@@H](C)C[C@H]2O)ccc2c1C[C@H]1[C@H]2CC=C2C[C@@H](O)CC[C@@]21C = 37.2
3) O=[N+]([O-])/C(C(Cl)=C(Cl)Cl)=C(/Nc1cccc2cccnc12)n1nnc2ccccc21 = 29.5
4) C#Cc1cccc(Nc2nc(Cl)nc3cc(NC(=O)CCl)ccc23)c1 = 4.22
5) Oc1ccc(-c2nc3ccccc3s2)cc1 = 38.8
6) O=C(CN(/C=C/C(=O)C(F)(F)F)c1ccc(Cl)cc1)c1ccc(Cl)c(Cl)c1 = 10.8
7) CN=C1C=CC(=C(c2ccc(N(C)C)cc2)c2ccc(N(C)C)cc2)C=C1 = 0.673
8) O=C(NCC(F)(F)F)Nc1cccc(-c2cnc3cc(-c4ccc(F)cc4)ccn23)c1 = 31.7

Give a short answer stating reported TGI for CCCCCCCCC#CCCCCCCCCCC[C@@H]1C(=O)O[C@H](C)[C@@H]1O (tested in a mixture with another compound) .
21.9

----------
# log10 of TGI values compiled below
- Tested on: OVCAR-4 ovarian
- ASSAY NOTES: NCI tumour cell line growth inhibition, 48 h
# log10 transformed; quantity=TGI; unit=µM

1. S=C1Cc2c(-c3ccc(Br)cc3)cc(-c3ccccc3)nc2-c2ccccc2N1 = 0.16
2. CC1=CCC[C@H]2[C@](C)(CC3=CC(=O)C(SCC(C)C)=CC3=O)[C@@H](C)CC[C@]12C = 1.50

Give a short answer stating reported log10 of TGI for CCCCCCCCCCCCC(O)c1ccco1 (stereo not drawn) .
1.89

Give a short answer stating reported log10 of TGI for COc1ccc(C2=Nc3ccccc3SC(C)C2)cc1OC (stereo not drawn) .
1.76

Give a short answer stating reported log10 of TGI for CCCCCCCCOc1ccc(/C=C/C2=[N+](CCO)CCO2)cc1 .
1.15

Give a short answer stating reported log10 of TGI for c1ccc(OCCC[P+](c2ccccc2)(c2ccccc2)c2ccccc2)cc1 .
1.25

Give a short answer stating reported log10 of TGI for CCCc1cc(=O)n2c(C(=O)Nc3ccc(F)cc3)c(C(=O)Nc3ccc(F)cc3)sc2n1 .
1.74

Give a short answer stating reported log10 of TGI for Cc1c2ccncc2c(C)c2c1[nH]c1ccc(OCCN(C)C)cc12 .
-0.43

Give a short answer stating reported log10 of TGI for CCCCC#Cc1c(I)n(C)c(=O)[nH]c1=O .
0.50

Give a short answer stating reported log10 of TGI for CS(=O)(=O)OCCCNCCCOS(C)(=O)=O .
3.73

Give a short answer stating reported log10 of TGI for COc1nc(C#CC2CCCCC2)nc(OC)n1 .
1.44
